# Experiment Summary: Pharmacokinetics after IV and PO dosing
# Experimental Context: mouse, plasma, po, 24.5 mg/kg
Endpoint: AUC(0-t) at 8 h (ng·h/mL)
One number for each entry, in ng·h/mL.

// query What value of AUC(0-t) at 8 h has been reported for the following compound? C#Cc1cccc(Nc2nc3cc(C(=O)O)ccc3c3cncnc23)c1 [drawing 547]
// result 6000

###

Consider the following compounds; for each one, report its IC50.
# Test system: MCF-10A
# Experiment Summary: Cell proliferation assay (Alamar Blue)
# Format: cell-based
# Experimental Context: Homo sapiens, 96 h, MCF-10A cells, four days

Examples from the recorded data:
// query What value of IC50 has been reported for the following compound? C#Cc1cccc(Nc2nc3cc(C(=O)O)ccc3c3cncnc23)c1 [drawing 452]
// result 0.64 µM

// query What value of IC50 has been reported for the following compound? O=C(O)c1ccc2c(c1)nc(Nc1ccccc1)c1ccncc12 [drawing 443]
// result 3.84 µM

// query What value of IC50 has been reported for the following compound? C#Cc1cccc(Nc2nc3cc(C(=O)O)ccc3c3cnccc23)c1 [drawing 457]
// result 0.73 µM

// query What value of IC50 has been reported for the following compound? O=C(O)c1ccc2c(c1)nc(Nc1cccc(Cl)c1)c1ccncc12 [drawing 448]
// result 0.53 µM

Others:
// query What value of IC50 has been reported for the following compound? O=C(O)c1ccc2c(c1)nc(Nc1cc(F)cc(F)c1)c1ncncc12 [drawing 449]
// result 1.08 µM

###

Consider the following compounds; for each one, report its IC50.
# Test system: MDAMB231
# Experiment Summary: Cell proliferation assay (Alamar Blue)
# Assay type: cell-based
# Experimental Context: Homo sapiens, MDA-MB-231, 96 h, MDAMB231 cells, four days
Numbers only, in µM.

Examples from the recorded data:
// query Return IC50 measured with MDAMB231 given this compound: O=C(O)c1ccc2c(c1)nc(Nc1ccc(F)c(Cl)c1)c1ncncc12 [drawing 374]
// result 1.11

// query Return IC50 measured with MDAMB231 given this compound: O=C(O)c1ccc2c(c1)nc(Nc1ccc(F)c(Cl)c1)c1nc(NCc3ccccn3)ncc12 [drawing 433]
// result 33.7

// query Return IC50 measured with MDAMB231 given this compound: O=C(O)c1ccc2c(c1)nc(Nc1ccccc1)c1nc(NCCN3CCOCC3)ncc12 [drawing 396]
// result 2.44

// query Return IC50 measured with MDAMB231 given this compound: O=C(O)c1ccc2c(c1)nc(Nc1ccccc1)c1nc(NC3CC3)ncc12 [drawing 389]
// result 0.73

// query Return IC50 measured with MDAMB231 given this compound: O=C(O)c1ccc2c(c1)nc(Nc1ccc(Cl)c(C(F)(F)F)c1)c1ccncc12 [drawing 404]
// result 4.43

Below are some compounds; for each one, tell me its IC50.
1. O=C(O)c1ccc2c(c1)nc(Nc1cccc(F)c1)c1ncncc12 [drawing 378]
2. C#Cc1cccc(Nc2nc3cc(C(=O)O)ccc3c3cnccc23)c1 [drawing 385]
3. C#Cc1cccc(Nc2nc3cc(C(=O)O)ccc3c3cnc(NCCOC)nc23)c1 [drawing 400]
4. C#Cc1cccc(Nc2nc3cc(C(=O)O)ccc3c3cnc(NCCCOC(C)C)nc23)c1 [drawing 420]
5. O=C(O)c1ccc2c(c1)nc(Nc1cccc(Cl)c1)c1nc(NC3CC3)ncc12 [drawing 405]
6. CCOC(=O)CCNC(=O)c1ccc2c(c1)nc(Nc1cccc(C(F)(F)F)c1)c1nc(NC3CC3)ncc12 [drawing 442]
7. O=C(O)c1ccc2c(c1)nc(Nc1ccc(F)c(Cl)c1)c1nc(NCc3cccnc3)ncc12 [drawing 438]
8. C#Cc1cccc(Nc2nc3cc(C(=O)O)ccc3c3cnc(NCCC)nc23)c1 [drawing 399]

// result
1. 0.84
2. 11.8
3. 4.74
4. 7.05
5. 3.93
6. 2.52
7. 5.48
8. 10.4

###

Consider the following compounds; for each one, report its IC50.
# System: A549
# Experiment Summary: Cell proliferation assay (Alamar Blue)
# Format: cell-based
# Experimental Context: Homo sapiens, 96 h, A549 cells, four days
One number for each entry, in µM.

// query What value of IC50 has been reported for the following compound? O=C(O)c1ccc2c(c1)nc(Nc1ccc(Cl)cc1)c1ccncc12 [drawing 384]
// result 9.74

// query What value of IC50 has been reported for the following compound? O=C(O)c1ccc2c(c1)nc(Nc1ccccc1)c1ccncc12 [drawing 372]
// result 4.16

// query What value of IC50 has been reported for the following compound? O=C(O)c1ccc2c(c1)nc(Nc1cccc(F)c1)c1ccncc12 [drawing 375]
// result 16.6

// query What value of IC50 has been reported for the following compound? CNc1ncc2c(n1)c(Nc1ccccc1)nc1cc(C(=O)O)ccc12 [drawing 383]
// result 13.9

// query What value of IC50 has been reported for the following compound? C#Cc1cccc(Nc2nc3cc(C(=O)O)ccc3c3cncnc23)c1 [drawing 380]
// result 21.2

Here is another compound to look at.
// query What value of IC50 has been reported for the following compound? O=C(O)c1ccc2c(c1)nc(Nc1cccc(Cl)c1)c1ccncc12 [drawing 376]
// result 6.59

###

# Test system: A549
# Experiment Summary: Cell proliferation assay (Alamar Blue)
# Assay type: cell-based
# Experimental Context: Homo sapiens, 96 h, A549 cells, four days
Endpoint: IC50 (µM)
Numbers only, in µM.

Examples from the recorded data:
// query What value of IC50 has been reported for the following molecule? C#Cc1cccc(Nc2nc3cc(C(=O)O)ccc3c3cnccc23)c1 [drawing 385]
// result 30.2

// query What value of IC50 has been reported for the following molecule? O=C(O)c1ccc2c(c1)nc(Nc1cccc(F)c1)c1ncncc12 [drawing 378]
// result 14.1

// query What value of IC50 has been reported for the following molecule? O=C(O)c1ccc2c(c1)nc(Nc1cc(F)cc(F)c1)c1ccncc12 [drawing 387]
// result 27.4

// query What value of IC50 has been reported for the following molecule? O=C(O)c1ccc2c(c1)nc(Nc1cccc(Cl)c1)c1ncncc12 [drawing 379]
// result 28.5

// query What value of IC50 has been reported for the following molecule? O=C(O)c1ccc2c(c1)nc(Nc1cc(F)cc(F)c1)c1ncncc12 [drawing 377]
// result 24.6

Others:
// query What value of IC50 has been reported for the following molecule? O=C(O)c1ccc2c(c1)nc(Nc1ccc(F)c(Cl)c1)c1ccncc12 [drawing 373]
// result 6.83

###

# Test system: BxPC3
# Experiment Summary: Cell proliferation assay (Alamar Blue)
# Type: cell-based
# Experimental Context: Homo sapiens, BXPC-3, 96 h, BxPC3 cells, four days
Consider the following compounds; for each one, report its IC50.
Answers are plain numbers, in µM.

Examples from the recorded data:
// query What value of IC50 has been reported for the following compound? O=C(O)c1ccc2c(c1)nc(Nc1ccccc1)c1nc(NCCCN3CCOCC3)ncc12 [drawing 469]
// result 1.65

// query What value of IC50 has been reported for the following compound? O=C(O)c1ccc2c(c1)nc(Nc1ccc(Cl)cc1)c1ccncc12 [drawing 456]
// result 6.38

// query What value of IC50 has been reported for the following compound? O=C(O)c1ccc2c(c1)nc(Nc1ccc(Cl)c(C(F)(F)F)c1)c1ccncc12 [drawing 476]
// result 2.6

// query What value of IC50 has been reported for the following compound? O=C(O)c1ccc2c(c1)nc(Nc1cccc(F)c1)c1ncncc12 [drawing 450]
// result 3.48

// query What value of IC50 has been reported for the following compound? C#Cc1cccc(Nc2nc3cc(C(=O)O)ccc3c3cnc(NCCC)nc23)c1 [drawing 471]
// result 3

Below are some compounds; for each one, tell me its IC50.
1. O=C(O)c1ccc2c(c1)nc(Nc1cccc(F)c1)c1nc(NC3CC3)ncc12 [drawing 502]
2. C#Cc1cccc(Nc2nc3cc(C(=O)O)ccc3c3cnc(NC4CCNCC4)nc23)c1 [drawing 473]
3. O=C(NC1CC1)c1ccc2c(c1)nc(Nc1cccc(C(F)(F)F)c1)c1nc(NC3CC3)ncc12 [drawing 508]

// result
1. 9.89
2. 25.3
3. 2.73

###

# Test system: MDAMB231
# Experiment Summary: Cell proliferation assay (Alamar Blue)
# Type: cell-based
# Experimental Context: Homo sapiens, MDA-MB-231, 96 h, MDAMB231 cells, four days
Endpoint: log10 IC50 (log10 of the value in µM)
Remember, log10 of IC50, in µM.

// query What value of log10 IC50 has been reported for the following compound? COC(=O)c1ccc2c(c1)nc(Nc1cccc(Cl)c1)c1nc(NCCC(N)=O)ncc12 [drawing 424]
// result 1.43

// query What value of log10 IC50 has been reported for the following compound? O=C(O)c1ccc2c(c1)nc(Nc1cc(F)cc(F)c1)c1ccncc12 [drawing 387]
// result 1.04

// query What value of log10 IC50 has been reported for the following compound? O=C(O)c1ccc2c(c1)nc(Nc1ccc(F)c(Cl)c1)c1ccncc12 [drawing 373]
// result 0.79

// query What value of log10 IC50 has been reported for the following compound? Nc1ncc2c(n1)c(Nc1cccc(Cl)c1)nc1cc(C(=O)O)ccc12 [drawing 410]
// result 0.61

// query What value of log10 IC50 has been reported for the following compound? Cc1ncc2c(n1)c(Nc1cccc(Cl)c1)nc1cc(C(=O)O)ccc12 [drawing 422]
// result 0.74

// query What value of log10 IC50 has been reported for the following compound? O=C(O)c1ccc2c(c1)nc(Nc1ccc(Cl)cc1)c1ccncc12 [drawing 384]
// result 0.58

// query What value of log10 IC50 has been reported for the following compound? CC(C)OC(=O)Nc1ccc2c(c1)nc(Nc1cccc(C(F)(F)F)c1)c1nc(NC3CC3)ncc12 [drawing 441]
// result 0.63

// query What value of log10 IC50 has been reported for the following compound? Nc1ncc2c(n1)c(Nc1ccc(F)c(Cl)c1)nc1cc(C(=O)O)ccc12 [drawing 415]
// result 0.81

Below are some compounds; for each one, tell me its log10 IC50.
1. COCCNc1ncc2c(n1)c(Nc1ccc(F)c(Cl)c1)nc1cc(C(=O)O)ccc12 [drawing 417]
2. O=C(O)c1ccc2c(c1)nc(Nc1cccc(C(F)(F)F)c1)c1ccncc12 [drawing 428]
3. O=C(O)c1ccc2c(c1)nc(Nc1cccc(C(F)(F)F)c1)c1ncncc12 [drawing 406]
4. N#Cc1cccc(Nc2nc3cc(C(=O)O)ccc3c3cnccc23)c1 [drawing 388]
5. O=C(O)c1ccc2c(c1)nc(Nc1cccc(F)c1)c1nc(NC3CC3)ncc12 [drawing 430]
6. CNc1ncc2c(n1)c(Nc1cccc(Cl)c1)nc1cc(C(=O)O)ccc12 [drawing 408]

// result
1.10
1.11
0.47
1.46
1.11
0.92

Below are some compounds; for each one, tell me its log10 IC50.
1. CNc1ncc2c(n1)c(Nc1ccc(F)c(Cl)c1)nc1cc(C(=O)O)ccc12 [drawing 414]
2. COC(CNc1ncc2c(n1)c(Nc1ccc(F)c(Cl)c1)nc1cc(C(=O)O)ccc12)OC [drawing 434]
3. O=C(O)c1ccc2c(c1)nc(Nc1cccc(C(F)(F)F)c1)c1nc(NC3CC3)ncc12 [drawing 412]
4. O=C(NC1CC1)c1ccc2c(c1)nc(Nc1cccc(C(F)(F)F)c1)c1nc(NC3CC3)ncc12 [drawing 436]
5. O=C(O)c1ccc2c(c1)nc(Nc1ccccc1)c1ccncc12 [drawing 372]
6. C#Cc1cccc(Nc2nc3cc(C(=O)O)ccc3c3cnc(NC4CC4)nc23)c1 [drawing 398]

// result
1.20
1.40
0.96
1.60
0.42
0.69

Below are some compounds; for each one, tell me its log10 IC50.
1. CCNc1ncc2c(n1)c(Nc1cccc(Cl)c1)nc1cc(C(=O)O)ccc12 [drawing 413]
2. O=C(O)c1ccc2c(c1)nc(Nc1ccccc1)c1nc(Nc3ccccc3)ncc12 [drawing 440]
3. COCCNc1ncc2c(n1)c(Nc1ccccc1)nc1cc(C(=O)O)ccc12 [drawing 391]
4. O=C(O)c1ccc2c(c1)nc(Nc1ccc(F)c(Cl)c1)c1nc(NCc3ccncc3)ncc12 [drawing 439]
5. O=C(O)c1ccc2c(c1)nc(Nc1cc(F)cc(F)c1)c1ncncc12 [drawing 377]
6. CCCNc1ncc2c(n1)c(Nc1ccccc1)nc1cc(C(=O)O)ccc12 [drawing 390]

// result
1: 0.84; 2: 1.28; 3: 1.39; 4: 1.08; 5: 0.49; 6: 1.26
